Source: ChEMBL document CHEMBL1135112

# Tested on: MCF7
# TEST_NAME: Tested in vitro for inhibitory effect on the growth of MCF-7 cell line
# Type: functional, cell-based
# ASSAY_CONDITIONS: Homo sapiens
pIC50: −log10 of the molar value.
METRIC_NAME: pIC50

CC(=O)O[C@H](CC=C(C)C)C1=CC(=O)c2c(O)ccc(O)c2C1=O [ACETYLSHIKONIN]    4.51

[1] CC(C)=CCC(OC(=O)c1ccc2ccccc2c1)C1=CC(=O)c2c(O)ccc(O)c2C1=O (stereo not drawn)
[2] CC(C)=CCC(OC(=O)CCCCC(C)C)C1=CC(=O)c2c(O)ccc(O)c2C1=O (stereo not drawn)
Prompt: Min pIC50? 1 | 2 Record your answer as the label of the chosen record.
Response: 2
(2: 3.60, 1: 4.03)
